Entry source: patent US11162944B2

- System: biomarker (antibody) in serum samples from patients with symptoms of tuberculosis
- Format: binding, human
- Study conditions: serum sample 19 TB−
Marks after values point to notes of the source that are not given here.
Parameter measured: ELISA absorbance at 492 nm

Qu. // fetch ELISA absorbance at 492 nm given entry CCCCCCCCCCCCCCCCCCCCCC[C@@H](C(=O)OC[C@H]1O[C@H](OC)[C@@H](O)[C@@H]1O)[C@H](O)CCCCCCCCCCCCCCC[C@@H]1C[C@@H]1CCCCCCCCCCCCCCCCCCC(=O)C(C)CCCCCCCCCCCCCCCCCC (some centres unmarked) [Antigen C]
Ans. 0.20

Qu. Please give the documented ELISA absorbance at 492 nm of CCCCCCCCCCCCCCCCCCCCCC[C@@H](C(=O)OC[C@H]1O[C@H](OC)[C@@H](O)[C@@H]1O)[C@H](O)CCCCCCCCCCCCCCCCC[C@@H]1C[C@@H]1CCCCCCCCCCCCCCCC[C@@H](OC)[C@@H](C)CCCCCCCCCCCCCCCCCC [Antigen A]
Ans. 0.20

Qu. Note down ELISA absorbance at 492 nm recorded for CCCCCCCCCCCCCCCCCCCCCCCC[C@@H](C(=O)OC[C@H]1O[C@H](OC)[C@@H](O)[C@@H]1O)[C@H](O)CCCCCCCCCCC[C@H]1CC1CCCCCCCCCCCCCC[C@H]1C[C@H]1CCCCCCCCCCCCCCCCCCCC (some centres unmarked) [Antigen F]
Ans. 0.71*

---
Qu. Tell me measured ELISA absorbance at 492 nm for CCCCCCCCCCCCCCCCCCCCCC[C@@H](C(=O)OC[C@H]1O[C@H](OC)[C@@H](O)[C@@H]1O)[C@H](O)CCCCCCCCCCCCCCCCC[C@H]1C[C@H]1CCCCCCCCCCCCCCCC[C@@H](OC)[C@@H](C)CCCCCCCCCCCCCCCCCC [Antigen E] please.
Ans. 0.31

Qu. Retrieve ELISA absorbance at 492 nm measured for CCCCCCCCCCCCCCCCCCCCCCCC[C@@H](C(=O)OC[C@H]1O[C@H](OC)[C@@H](O)[C@@H]1O)[C@H](O)CCCCCCCCCCCCCCCCC[C@@H]1C[C@@H]1CCCCCCCCCCCCCCCC[C@@H](OC)[C@@H](C)CCCCCCCCCCCCCCCCCC [Antigen B] and print it.
Ans. 0.53*

----------
- Tested on: biomarker (antibody) in serum samples from patients with symptoms of tuberculosis
- Assay type: binding, human
- Study conditions: serum sample 15 TB−
Marks after values point to notes of the source that are not given here.
Parameter measured: ELISA absorbance at 492 nm

Qu. Name the value of ELISA absorbance at 492 nm reported for CCCCCCCCCCCCCCCCCCCCCC[C@@H](C(=O)OC[C@H]1O[C@H](OC)[C@@H](O)[C@@H]1O)[C@H](O)CCCCCCCCCCCCCCCCC[C@@H]1C[C@@H]1CCCCCCCCCCCCCCCC[C@@H](OC)[C@@H](C)CCCCCCCCCCCCCCCCCC [Antigen A] when tested on biomarker (antibody) in serum samples from patients with symptoms of tuberculosis.
Ans. 0.23

Others:
Qu. Jot down ELISA absorbance at 492 nm (biomarker (antibody) in serum samples from patients with symptoms of tuberculosis) of CCCCCCCCCCCCCCCCCCCCCC[C@@H](C(=O)OC[C@H]1O[C@H](OC)[C@@H](O)[C@@H]1O)[C@H](O)CCCCCCCCCCCCCCCCC[C@H]1C[C@H]1CCCCCCCCCCCCCCCC[C@@H](OC)[C@@H](C)CCCCCCCCCCCCCCCCCC [Antigen E] .
Ans. 0.37*

Qu. Give ELISA absorbance at 492 nm only, for CCCCCCCCCCCCCCCCCCCCCC[C@@H](C(=O)OC[C@H]1O[C@H](OC)[C@@H](O)[C@@H]1O)[C@H](O)CCCCCCCCCCCCCCC[C@@H]1C[C@@H]1CCCCCCCCCCCCCCCCCCC(=O)C(C)CCCCCCCCCCCCCCCCCC (some centres unmarked) [Antigen C] , using biomarker (antibody) in serum samples from patients with symptoms of tuberculosis data.
Ans. 0.22

Qu. Print biomarker (antibody) in serum samples from patients with symptoms of tuberculosis ELISA absorbance at 492 nm for CCCCCCCCCCCCCCCCCCCCCCCC[C@@H](C(=O)OC[C@H]1O[C@H](OC)[C@@H](O)[C@@H]1O)[C@H](O)CCCCCCCCCCC[C@H]1CC1CCCCCCCCCCCCCC[C@H]1C[C@H]1CCCCCCCCCCCCCCCCCCCC (some centres unmarked) [Antigen F] .
Ans. 0.64

Qu. Quote ELISA absorbance at 492 nm with test system biomarker (antibody) in serum samples from patients with symptoms of tuberculosis for CCCCCCCCCCCCCCCCCCCCCCCC[C@@H](C(=O)OC[C@H]1O[C@H](OC)[C@@H](O)[C@@H]1O)[C@H](O)CCCCCCCCCCCCCCCCC[C@@H]1C[C@@H]1CCCCCCCCCCCCCCCC[C@@H](OC)[C@@H](C)CCCCCCCCCCCCCCCCCC [Antigen B]
Ans. 0.53*

----------
- System: biomarker (antibody) in serum samples from patients with symptoms of tuberculosis
- Assay type: binding, human
- Study conditions: serum sample 45 TB−
Parameter measured: ELISA absorbance at 492 nm
# output: bare number, no unit

Qu. For the molecule CCCCCCCCCCCCCCCCCCCCCCCC[C@@H](C(=O)OC[C@H]1O[C@H](OC)[C@@H](O)[C@@H]1O)[C@H](O)CCCCCCCCCCCCCCCCC[C@@H]1C[C@@H]1CCCCCCCCCCCCCCCC[C@@H](OC)[C@@H](C)CCCCCCCCCCCCCCCCCC [Antigen B] , give its measured ELISA absorbance at 492 nm value.
Ans. 0.34

Now look at this one.
Qu. Determine from records and report ELISA absorbance at 492 nm for CCCCCCCCCCCCCCCCCCCCCCCC[C@@H](C(=O)OC[C@H]1O[C@H](OC)[C@@H](O)[C@@H]1O)[C@H](O)CCCCCCCCCCC[C@H]1CC1CCCCCCCCCCCCCC[C@H]1C[C@H]1CCCCCCCCCCCCCCCCCCCC (some centres unmarked) [Antigen F]
Ans. 0.43

----------
- Test system: biomarker (antibody) in serum samples from patients with symptoms of tuberculosis
- Format: binding, human
- Study conditions: serum sample 59 TB−
Parameter measured: ELISA absorbance at 492 nm
Give the figure only, with no unit attached.

Qu. Return ELISA absorbance at 492 nm (reported value) for this molecule: CCCCCCCCCCCCCCCCCCCCCCCC[C@@H](C(=O)OC[C@H]1O[C@H](OC)[C@@H](O)[C@@H]1O)[C@H](O)CCCCCCCCCCC[C@H]1CC1CCCCCCCCCCCCCC[C@H]1C[C@H]1CCCCCCCCCCCCCCCCCCCC (some centres unmarked) [Antigen F]
Ans. 0.45

***
Qu. Report ELISA absorbance at 492 nm for CCCCCCCCCCCCCCCCCCCCCCCC[C@@H](C(=O)OC[C@H]1O[C@H](OC)[C@@H](O)[C@@H]1O)[C@H](O)CCCCCCCCCCCCCCCCC[C@@H]1C[C@@H]1CCCCCCCCCCCCCCCC[C@@H](OC)[C@@H](C)CCCCCCCCCCCCCCCCCC [Antigen B]
Ans. 0.30

----------
Here, each record is paired with measured ELISA absorbance at 492 nm data.
- System: biomarker (antibody) in serum samples from patients with symptoms of tuberculosis
- Format: binding, human
- Study conditions: serum sample 26 TB−
Format: numeric value only, no unit, no commentary.

Qu. Given the compound CCCCCCCCCCCCCCCCCCCCCC[C@@H](C(=O)OC[C@H]1O[C@H](OC)[C@@H](O)[C@@H]1O)[C@H](O)CCCCCCCCCCCCCCCCC[C@H]1C[C@H]1CCCCCCCCCCCCCCCC[C@@H](OC)[C@@H](C)CCCCCCCCCCCCCCCCCC [Antigen E] , write its reported ELISA absorbance at 492 nm.
Ans. 0.24

Lab note: next compound to report on.
Qu. Using known records, supply ELISA absorbance at 492 nm for CCCCCCCCCCCCCCCCCCCCCCCC[C@@H](C(=O)OC[C@H]1O[C@H](OC)[C@@H](O)[C@@H]1O)[C@H](O)CCCCCCCCCCC[C@H]1CC1CCCCCCCCCCCCCC[C@H]1C[C@H]1CCCCCCCCCCCCCCCCCCCC (some centres unmarked) [Antigen F]
Ans. 0.72

----------
- Test system: biomarker (antibody) in serum samples from patients with symptoms of tuberculosis
- Assay type: binding, human
- Study conditions: serum sample 14 TB−
Marks after values point to notes of the source that are not given here.
We begin with a simple list: items and their reported ELISA absorbance at 492 nm.

Qu. Supply ELISA absorbance at 492 nm value. Item: CCCCCCCCCCCCCCCCCCCCCC[C@@H](C(=O)OC[C@H]1O[C@H](OC)[C@@H](O)[C@@H]1O)[C@H](O)CCCCCCCCCCCCCCCCC[C@H]1C[C@H]1CCCCCCCCCCCCCCCC[C@@H](OC)[C@@H](C)CCCCCCCCCCCCCCCCCC [Antigen E]
Ans. 0.58*

For the next question, use this compound.
Qu. Supply ELISA absorbance at 492 nm value. Item: CCCCCCCCCCCCCCCCCCCCCC[C@@H](C(=O)OC[C@H]1O[C@H](OC)[C@@H](O)[C@@H]1O)[C@H](O)CCCCCCCCCCCCCCC[C@@H]1C[C@@H]1CCCCCCCCCCCCCCCCCCC(=O)C(C)CCCCCCCCCCCCCCCCCC (some centres unmarked) [Antigen C]
Ans. 0.56*
